For each entry below, report its IC50 value.
Molecular target: human recombinant ETA receptors (Homo sapiens, UniProt P25101)
Sequence (P25101 21-427): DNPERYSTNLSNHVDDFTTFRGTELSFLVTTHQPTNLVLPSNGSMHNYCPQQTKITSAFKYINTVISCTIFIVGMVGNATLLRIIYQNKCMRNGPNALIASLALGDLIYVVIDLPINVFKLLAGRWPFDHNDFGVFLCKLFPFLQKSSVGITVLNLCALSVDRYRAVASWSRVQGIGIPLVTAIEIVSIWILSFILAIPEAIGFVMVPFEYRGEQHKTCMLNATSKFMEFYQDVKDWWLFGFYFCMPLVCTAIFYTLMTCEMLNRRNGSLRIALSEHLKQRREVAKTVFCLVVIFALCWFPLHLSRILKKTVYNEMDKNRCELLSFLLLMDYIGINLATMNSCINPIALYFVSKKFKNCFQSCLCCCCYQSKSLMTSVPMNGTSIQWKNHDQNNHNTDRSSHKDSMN
Assay: Inhibition of [125I]ET-1 binding to membranes from CHO cells carrying human ETA receptors
Conditions: CHO cell membranes, 8 pM [125I]ET-1, 2 h at 20° C.
Answers are plain numbers, in nM.

See these solved cases before continuing.
# Compound, Property name, Reported measurement
measured = [
    ("Cc1ccc(-c2c(NS(=O)(=O)/C=C/c3ccccc3)ncnc2OCCOc2ncc(Cl)cn2)cc1 [Example 14]", "IC50", 4.75),
    ("O=S(=O)(/C=C/c1ccccc1)Nc1ncnc(OCCOc2ncc(Br)cn2)c1-c1ccc(Cl)cc1 [Example 43]", "IC50", 4.6),
    ("COc1cccc(Oc2c(NS(=O)(=O)/C=C/c3ccccc3)ncnc2OCCOc2ncc(Br)cn2)c1 [Example 230]", "IC50", 12.3),
]

Would you kindly look at the next entry?
What does the record list as IC50 for C/C(=C\c1ccccc1)S(=O)(=O)Nc1ncnc(OCCOc2ncc(Br)cn2)c1-c1ccc(C)cc1 [Example 30] ?
41.8

====

Biological target: human recombinant ETB receptors (Homo sapiens, UniProt P24530)
Construct: expressed in transfected cells; host or cells: CHO cells (microsomal membranes)
Sequence (P24530 27-442): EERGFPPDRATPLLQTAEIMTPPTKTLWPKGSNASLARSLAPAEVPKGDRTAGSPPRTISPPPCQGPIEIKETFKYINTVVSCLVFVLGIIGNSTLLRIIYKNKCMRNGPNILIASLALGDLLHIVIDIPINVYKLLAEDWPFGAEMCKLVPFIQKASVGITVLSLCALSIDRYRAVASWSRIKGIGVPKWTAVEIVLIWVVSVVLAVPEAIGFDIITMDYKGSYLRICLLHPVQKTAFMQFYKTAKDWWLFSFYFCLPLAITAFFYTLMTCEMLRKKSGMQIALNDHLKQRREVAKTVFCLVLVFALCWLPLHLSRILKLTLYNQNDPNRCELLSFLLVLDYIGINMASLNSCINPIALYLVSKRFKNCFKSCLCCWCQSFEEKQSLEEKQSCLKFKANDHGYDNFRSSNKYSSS
Assay: Inhibition of [125I]ET-1 binding to membranes from CHO cells carrying human ETB receptors
Property name: pIC50
Give bare numbers, as −log10 of the molar value.

# Molecule, System, Property name, Reported measurement
data = [
    ("Cc1ccc(-c2c(NS(=O)(=O)/C=C/c3ccccc3)nc(C3CC3)nc2OCCOc2ncc(Br)cn2)cc1 [Example 132]", "human recombinant ETB receptors (Homo sapiens, UniProt P24530)", "pIC50", 5.78),
]

Provide pIC50 values for the following items, in order.
1. COc1cnc(OCCOc2ncnc(NS(=O)(=O)/C=C/c3cccs3)c2-c2ccc(Br)cc2)nc1 [Example 90]
2. Cc1ccc(-c2c(NS(=O)(=O)/C=C/c3ccccc3)nc(-c3ncccn3)nc2OCCOc2ncc(Br)cn2)cc1 [Example 140]
3. O=S(=O)(/C=C/c1cccs1)Nc1ncnc(OCCOc2ncc(Cl)cn2)c1-c1ccc(Br)cc1 [Example 89]
4. COc1cnc(OCCOc2nc(N3CCOCC3)nc(NS(=O)(=O)/C(C)=C/c3ccccc3)c2Oc2ccccc2OC)nc1 [Example 203]

[6.47, 5.96, 5.91, 6.60]

For each entry beneath this line, provide reported pIC50.
1. O=S(=O)(/C=C/c1ccccc1)Nc1ncnc(OCCOc2ncc(Cl)cn2)c1-c1ccc(Br)cc1 [Example 87]
2. Cc1ccc(-c2c(NS(=O)(=O)/C=C/c3ccccc3)ncnc2OCCOc2ccc(Br)cc2)cc1 [Example 3]

6.36
6.14

====

Task for the reader: assign each of the following molecules its reported pIC50.
Target: human recombinant ETB receptors (Homo sapiens, UniProt P24530)
Construct: expressed in transfected cells; host or cells: CHO cells (microsomal membranes)
Experiment: Inhibition of [125I]ET-1 binding to membranes from CHO cells carrying human ETB receptors
One number for each entry, as −log10 of the molar value.

The following molecules each have a reported value; give each one's pIC50.
1. COc1ccccc1Oc1c(NS(=O)(=O)/C=C/c2ccsc2)nc(-c2ccncc2)nc1OCCOc1ncc(Br)cn1
2. CSc1cnc(OCCOc2ncnc(NS(=O)(=O)/C=C/c3ccccc3)c2-c2ccc(Cl)cc2)nc1
3. Cc1ccc(-c2c(NS(=O)(=O)/C=C/c3ccccc3)ncnc2OCCOc2nc3ccccc3o2)cc1
4. Cc1ccc(-c2c(NS(=O)(=O)/C=C/c3cccc(C)c3)ncnc2OCCOc2ncc(Br)cn2)cc1

[6.17, 6.76, 5.95, 5.75]

====

Would you mind telling me the reported pIC50 of each entry?
Molecular target: human recombinant ETB receptors (Homo sapiens)
Construct: expressed in transfected cells; host or cells: CHO cells (microsomal membranes)
Test: Inhibition of [125I]ET-1 binding to membranes from CHO cells carrying human ETB receptors
Answers are plain numbers, as −log10 of the molar value.

// worked examples, pIC50 included
# Smiles string, pIC50
measured = [
    ("COc1ccccc1Oc1c(NS(=O)(=O)/C(C)=C/c2ccccc2)nc(-c2ccncc2)nc1OCCOc1ncc(Br)cn1", 6.30),
    ("COc1ccccc1Oc1c(NS(=O)(=O)/C=C/c2ccccc2)nc(-c2cnccn2)nc1OCCOc1ncc(Br)cn1", 5.85),
    ("Cc1ccc(-c2c(NS(=O)(=O)/C=C/c3ccccc3)ncnc2OCCOc2ccc(Cl)cc2)cc1", 5.87),
]

Next compound, pIC50 to be filled in.
What pIC50 value was documented for this compound, Cc1ccc(-c2c(NS(=O)(=O)/C=C/c3ccccc3)nc(C)nc2OCCOc2ncc(Br)cn2)cc1 ?
5.87

====

Molecular target: ETA receptors (Rattus norvegicus)
Construct: The thoracic aorta or trachea were excised, dissected and cut in 3-5 mm rings; from tissue; host or cells: thoracic aorta rings of adult Wistar rats, endothelium removed
Sequence (P26684 21-426): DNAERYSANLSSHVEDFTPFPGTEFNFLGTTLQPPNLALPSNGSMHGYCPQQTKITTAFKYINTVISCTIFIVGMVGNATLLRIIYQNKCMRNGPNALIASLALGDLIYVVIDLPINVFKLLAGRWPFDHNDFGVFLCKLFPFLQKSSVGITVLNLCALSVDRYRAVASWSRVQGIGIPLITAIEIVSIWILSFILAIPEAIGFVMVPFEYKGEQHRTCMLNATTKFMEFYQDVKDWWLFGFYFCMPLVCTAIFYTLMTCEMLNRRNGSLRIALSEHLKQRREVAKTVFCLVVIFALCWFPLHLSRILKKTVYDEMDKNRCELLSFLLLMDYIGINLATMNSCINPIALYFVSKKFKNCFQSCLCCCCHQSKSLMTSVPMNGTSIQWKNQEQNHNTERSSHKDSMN
Experiment: Inhibition of endothelin-1-induced contractions on isolated rat aortic rings
Assay type: cell-based
Conditions: read-out: pA2 value ETA (converted)
Decision: Kb compared against 20 nM; not below it gives true (1), below it gives false (0).

Please review the following examples before continuing.
# Smiles string, System, Label
rows = [
    ("COc1ccccc1Oc1c(NS(=O)(=O)/C=C/c2ccccc2)nc(N2CCOCC2)nc1OCCOc1ncc(F)cn1", "ETA receptors (Rattus norvegicus)", "true (1)"),
    ("COc1ccccc1Oc1c(NS(=O)(=O)/C=C/c2cccs2)nc(-c2ccncc2)nc1OCCOc1ncccn1", "ETA receptors (Rattus norvegicus)", "false (0)"),
    ("Cc1ccc(-c2c(NS(=O)(=O)/C=C/c3ccccc3)ncnc2OCCOc2ncc(F)cn2)cc1", "ETA receptors (Rattus norvegicus)", "true (1)"),
]

Here's the next entry for you.
Hi team, for O=S(=O)(/C=C/c1ccccc1)Nc1ncnc(OCCOc2ncc(Br)cn2)c1-c1ccccc1 , is the recorded Kb at or above 20 nM?
false (0)

====

Would you mind telling me the reported IC50 of each entry?
Biological target: human recombinant ETB receptors (Homo sapiens)
Construct: expressed in transfected cells; host or cells: CHO cells (microsomal membranes)
Sequence (P24530 27-442): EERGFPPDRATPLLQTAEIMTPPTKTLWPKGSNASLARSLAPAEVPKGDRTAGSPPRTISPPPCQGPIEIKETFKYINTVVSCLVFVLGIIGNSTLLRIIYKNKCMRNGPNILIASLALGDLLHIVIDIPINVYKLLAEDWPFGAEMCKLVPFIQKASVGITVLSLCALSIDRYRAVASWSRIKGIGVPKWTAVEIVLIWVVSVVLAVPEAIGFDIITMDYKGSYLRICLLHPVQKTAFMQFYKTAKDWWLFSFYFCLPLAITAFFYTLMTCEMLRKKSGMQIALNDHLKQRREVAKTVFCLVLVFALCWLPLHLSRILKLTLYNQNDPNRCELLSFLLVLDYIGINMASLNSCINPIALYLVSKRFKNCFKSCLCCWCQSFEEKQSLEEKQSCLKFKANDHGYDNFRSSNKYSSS
Experiment: Inhibition of [125I]ET-1 binding to membranes from CHO cells carrying human ETB receptors
One number for each entry, in µM.

Below: 5 compounds and their reported IC50.
# Compound, System, Quantity unit, IC50
data = [
    ("COc1ccccc1Oc1c(NS(=O)(=O)/C=C/c2ccccc2)nc(N2CCOCC2)nc1OCCOc1ncc(Cl)cn1 [Example 195]", "human recombinant ETB receptors (Homo sapiens)", "µM", 0.293),
    ("COc1ccccc1Oc1c(NS(=O)(=O)/C=C/c2cccs2)nc(-c2ccncc2)nc1OCCOc1ncccn1 [Example 174]", "human recombinant ETB receptors (Homo sapiens)", "µM", 1.01),
    ("COc1cnc(OCCOc2ncnc(NS(=O)(=O)/C=C/c3cccc(C)c3)c2-c2ccc(Cl)cc2)nc1 [Example 53]", "human recombinant ETB receptors (Homo sapiens)", "µM", 1.36),
    ("Cc1ccc(-c2c(NS(=O)(=O)/C=C/c3cccs3)ncnc2OCCOc2ccc(Br)cn2)cc1 [Example 71]", "human recombinant ETB receptors (Homo sapiens)", "µM", 0.507),
    ("COc1cnc(OCCOc2nc(-c3ccncc3)nc(NS(=O)(=O)/C=C/c3ccccc3)c2Oc2ccccc2OC)nc1 [Example 160]", "human recombinant ETB receptors (Homo sapiens)", "µM", 0.757),
]

Batch request: IC50 for each of the following compounds.
1. COc1ccccc1Oc1c(NS(=O)(=O)/C=C/c2ccccc2)ncnc1OCCOc1ncc(Br)cn1 [Example 211]
2. COc1ccccc1Oc1c(NS(=O)(=O)/C=C/c2cccs2)nc(-c2ncccn2)nc1OCCOc1ncccn1 [Example 158]

2.64
1.26
